System: Salmonella typhimurium
Assay: Mutagenic activity in Salmonella typhimurium TA100 at 0.312 to 5 mg/plate preincubated for 20 mins before addition in absence of liver S9 mixture
Assay type: toxicity, organism-based
Conditions: salmonella enterica subsp. enterica serovar typhimurium
measurement-label: Activity

compound="CCC(C)COC(=O)Nc1nc(=O)n([C@@H]2O[C@H](C)[C@@H](O)[C@H]2O)cc1F (some centres undefined)" measurement_label=Activity value_observed=Non-toxic
compound="CCCCCOC(=O)Nc1nc(=O)n([C@@H]2O[C@H](C)[C@@H](O)[C@H]2O)cc1F [CAPECITABINE]" measurement_label=Activity value_observed=Non-toxic
compound=CCCCCOC(=O)Nc1nc(=O)n([C@@H]2O[C@H](C)[C@H]3OC(=O)O[C@H]32)cc1F measurement_label=Activity value_observed=Non-toxic
compound=C[C@H]1O[C@@H](n2cc(F)c(NC(=O)Oc3ccc([N+](=O)[O-])cc3)nc2=O)[C@@H]2OC(=O)O[C@@H]21 measurement_label=Activity value_observed=Non-toxic

====

Tested on: Salmonella typhimurium
Assay: Mutagenic activity in Salmonella typhimurium TA102 at 0.312 to 5 mg/plate measured after incubation of upside down for 48 hrs in absence of liver S9 mixture
Format: toxicity, organism-based
Conditions: salmonella enterica subsp. enterica serovar typhimurium
measurement-label: Activity

compound="CCC(C)COC(=O)Nc1nc(=O)n([C@@H]2O[C@H](C)[C@H]3OC(=O)O[C@H]32)cc1F (some centres undefined)" measurement_label=Activity value_observed=Non-toxic
compound=C[C@H]1O[C@@H](n2cc(F)c(NC(=O)Oc3ccc([N+](=O)[O-])cc3)nc2=O)[C@H](O)[C@@H]1O measurement_label=Activity value_observed=Non-toxic
compound=CC(C)CCOC(=O)Nc1nc(=O)n([C@@H]2O[C@H](C)[C@H]3OC(=O)O[C@H]32)cc1F measurement_label=Activity value_observed=Non-toxic
compound=CCCCCOC(=O)Nc1nc(=O)n([C@@H]2O[C@H](C)[C@@H](O)[C@H]2O)cc1F measurement_label=Activity value_observed=Non-toxic

====

Listed here: items and their measured IC50.
System: HeLa
Experiment: Cytotoxicity against human HeLa cells after 3 days MTT assay
Type: functional, cell-based
Conditions: 72 h
Report the value in µg/mL with no unit label.

Known results for compounds:
item_smiles=O=c1[nH]cc(F)c(=O)[nH]1 value_observed=0.04
item_smiles=CCCCCOC(=O)Nc1nc(=O)n([C@@H]2O[C@H](C)[C@H]3OC(=O)O[C@H]32)cc1F value_observed=0.08

Looking up `C[C@H]1O[C@@H](n2cc(F)c(NC(=O)Oc3ccc([N+](=O)[O-])cc3)nc2=O)[C@@H]2OC(=O)O[C@@H]21` , I see its IC50 listed as 0.03

====

Experiment: Toxicity in po dosed BDF-1 mouse
Assay type: organism-based
Settings: in vivo
measurement-label: LD50 (mg/kg)
Return type: number; implicit unit mg/kg.

item_smiles=C[C@H]1O[C@@H](n2cc(F)c(NC(=O)Oc3ccc([N+](=O)[O-])cc3)nc2=O)[C@@H]2OC(=O)O[C@@H]21 unit_abbrev=mg/kg value_observed=2000

Now, please, on to the next compound.
Form field LD50, entry `C[C@H]1O[C@@H](n2cc(F)c(NC(=O)Oc3ccc(Cl)cc3)nc2=O)[C@@H]2OC(=O)O[C@@H]21` : 2000
